Molecular target: HIF2α PAS-B domain (236-350, biotinylated on the N-terminus) (Homo sapiens (Human), UniProt Q99814)
Sequence (Q99814 236-350): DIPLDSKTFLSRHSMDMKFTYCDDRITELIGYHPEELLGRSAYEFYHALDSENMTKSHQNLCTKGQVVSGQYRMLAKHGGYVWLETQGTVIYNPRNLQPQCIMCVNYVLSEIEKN
IC50 strictly under 9 nM means satisfied; at 9 nM or over means not satisfied.

compound: FC(F)(F)C1=CN2C[C@@]3(CCc4c3ccc(Br)c4Cl)N=C2C(Cl)=C1 [Example 71]
assigned-category: not satisfied
//
compound: FC(F)OC1=CC(C(F)(F)F)=CN2C[C@@]3(CCCc4c3ccnc4Cl)N=C12 [Example 36]
assigned-category: satisfied
//
compound: COC1=CC(C(F)(F)F)=CN2C[C@@]3(CCCc4c3ccc(Br)c4F)N=C12 [Example 80]
assigned-category: not satisfied
//
compound: COc1ccc2c(c1F)CCC[C@@]21CN2C=C(C(F)(F)F)C=C(OC(F)F)C2=N1 [Example 84]
assigned-category: satisfied
//
compound: FC(F)OC1=CC(C(F)(F)F)=CN2C[C@@]3(CCOc4cc(C(F)(F)F)ccc43)N=C12 [Example 44]
assigned-category: not satisfied
//
compound: O=C1CC[C@@]2(CN3C=C(C(F)(F)F)C=C(OC(F)F)C3=N2)c2ccc(Br)c(F)c21 [Example 8]
assigned-category: not satisfied
//
compound: FC(F)OC1=CC(C(F)(F)F)=CN2C[C@@]3(N=C12)c1ccc(Br)cc1OC[C@@H]3F [Example 59]
assigned-category: not satisfied
//
compound: Fc1cccc2c1COC[C@@]21CN2C=C(C(F)(F)F)C=C(OC(F)F)C2=N1 [Example 63]
assigned-category: not satisfied
//
compound: FC1=CC(C(F)(F)F)=CN2C[C@@]3(CCCc4c3ccc(F)c4F)N=C12 [Example 29]
assigned-category: satisfied
//
compound: Fc1c(C(F)(F)F)ccc2c1OCC[C@@]21CN2C=C(C(F)(F)F)C=C(OC(F)F)C2=N1 [Example 40]
assigned-category: satisfied
//
compound: Fc1ccc2c(c1F)SCC[C@@]21CN2C=C(C(F)(F)F)C=C(OC(F)F)C2=N1 [Example 113]
assigned-category: satisfied
//
compound: Fc1c(C(F)(F)F)ncc2c1SCC[C@@]21CN2C=C(C(F)(F)F)C=C(OC(F)F)C2=N1 [Example 67]
assigned-category: not satisfied

###

Biological target: HIF2α PAS-B domain (236-350, biotinylated on the N-terminus) (Homo sapiens (Human))
IC50 strictly under 10 nM means T; at 10 nM or over means F.

compound: Fc1ccc2c(c1F)CCC[C@@]21CN2C=C(C(F)(F)F)C=C(OC(F)F)C2=N1 [Example 85]
measured-on: HIF2α PAS-B domain (236-350, biotinylated on the N-terminus) (Homo sapiens (Human))
assigned-category: T
--
compound: FC(F)(F)C1=CN2C[C@@]3(CCOc4cc(C(F)(F)F)ccc43)N=C2C(Cl)=C1 [Example 53]
measured-on: HIF2α PAS-B domain (236-350, biotinylated on the N-terminus) (Homo sapiens (Human))
assigned-category: F
--
compound: N#Cc1ccc2c(c1F)CCC[C@@]21CN2C=C(C(F)(F)F)C=C(OC(F)F)C2=N1 [Example 22]
measured-on: HIF2α PAS-B domain (236-350, biotinylated on the N-terminus) (Homo sapiens (Human))
assigned-category: T
--
compound: O=C1c2c(F)cccc2[C@@]2(C[C@@H]1F)CN1C=C(C(F)(F)F)C=C(OC(F)F)C1=N2 [Example 21]
measured-on: HIF2α PAS-B domain (236-350, biotinylated on the N-terminus) (Homo sapiens (Human))
assigned-category: F
--
compound: O[C@H]1c2c(ccc(Br)c2F)[C@@]2(C[C@H]1F)CN1C=C(C(F)(F)F)C=C(OC(F)F)C1=N2 [Example 10]
measured-on: HIF2α PAS-B domain (236-350, biotinylated on the N-terminus) (Homo sapiens (Human))
assigned-category: F
--
compound: FC(F)OC1=CC(C(F)(F)F)=CN2C[C@@]3(CCCc4cc(Br)ccc43)N=C12 [Example 11]
measured-on: HIF2α PAS-B domain (236-350, biotinylated on the N-terminus) (Homo sapiens (Human))
assigned-category: T
--
compound: N#CC1=CN2C[C@@]3(CCSc4c(F)cccc43)N=C2C(OC(F)F)=C1 [Example 66]
measured-on: HIF2α PAS-B domain (236-350, biotinylated on the N-terminus) (Homo sapiens (Human))
assigned-category: T

All figures here come from patent US12226405B2.
